Data origin: patent EP4786492A1

For each entry below, report its MFI value.
- testTarget: DLL3 endogenously expressed on NCI-H82 cells (UniProt Q9NYJ7)
- Sequence (Q9NYJ7 27-618): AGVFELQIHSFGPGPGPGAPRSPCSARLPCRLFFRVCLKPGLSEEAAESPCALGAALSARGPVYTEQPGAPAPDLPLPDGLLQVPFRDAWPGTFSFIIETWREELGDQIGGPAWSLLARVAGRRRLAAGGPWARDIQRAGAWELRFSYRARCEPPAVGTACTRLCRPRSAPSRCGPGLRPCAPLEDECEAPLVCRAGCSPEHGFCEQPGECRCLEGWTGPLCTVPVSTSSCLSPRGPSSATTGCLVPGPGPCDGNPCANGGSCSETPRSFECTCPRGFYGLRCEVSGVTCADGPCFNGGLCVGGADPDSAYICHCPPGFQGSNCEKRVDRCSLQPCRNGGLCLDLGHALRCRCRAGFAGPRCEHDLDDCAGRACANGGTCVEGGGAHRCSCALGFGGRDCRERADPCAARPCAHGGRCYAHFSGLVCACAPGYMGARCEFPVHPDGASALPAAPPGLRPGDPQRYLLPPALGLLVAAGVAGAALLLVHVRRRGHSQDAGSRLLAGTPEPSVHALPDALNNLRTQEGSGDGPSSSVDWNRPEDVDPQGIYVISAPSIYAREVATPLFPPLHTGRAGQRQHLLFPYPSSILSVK
- assayInfo: FACS on NCI-H82 cells; antibody 0.032 nM
// no unit, no text: just the number

// returns reported MFI for input Hab014VL3VH1-hFc (scFv, part only; not given: VL-VH linker and human IgG1 Fc, V domains shown, not shown: another chain or arm of the molecule; a dimerising Fc or GST; small tags and cut ends) VL: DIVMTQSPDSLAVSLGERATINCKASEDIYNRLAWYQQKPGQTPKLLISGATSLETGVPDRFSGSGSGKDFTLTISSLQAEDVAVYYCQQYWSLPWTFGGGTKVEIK VH: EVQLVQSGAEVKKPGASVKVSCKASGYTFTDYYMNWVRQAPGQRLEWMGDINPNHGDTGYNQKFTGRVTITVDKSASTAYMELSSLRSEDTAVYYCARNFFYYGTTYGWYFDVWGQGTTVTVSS
178

What would you report for Hab014VL1VH2-hFc (scFv, part only; not given: VL-VH linker and human IgG1 Fc, V domains shown, not shown: another chain or arm of the molecule; a dimerising Fc or GST; small tags and cut ends) VL: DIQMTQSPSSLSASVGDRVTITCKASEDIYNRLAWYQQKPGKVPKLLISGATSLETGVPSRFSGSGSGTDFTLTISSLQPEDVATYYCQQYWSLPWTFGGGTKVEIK VH: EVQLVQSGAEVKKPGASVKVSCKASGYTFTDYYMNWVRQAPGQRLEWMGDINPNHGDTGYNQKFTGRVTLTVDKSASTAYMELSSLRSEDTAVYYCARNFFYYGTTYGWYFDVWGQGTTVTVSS ?
204

Moving on to mab009 scFv-hFc (Fc fusion, part only; not given: Linker and human IgG1 Fc, not shown: a dimerising Fc or GST) chain, part: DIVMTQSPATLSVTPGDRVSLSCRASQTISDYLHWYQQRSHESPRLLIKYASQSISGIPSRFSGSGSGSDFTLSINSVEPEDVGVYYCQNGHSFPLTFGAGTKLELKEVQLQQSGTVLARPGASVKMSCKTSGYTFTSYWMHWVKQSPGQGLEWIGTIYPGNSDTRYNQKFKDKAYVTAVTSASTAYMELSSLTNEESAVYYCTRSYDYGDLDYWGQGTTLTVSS
346
